assayProcedure: Peptide stability in simulated intestinal fluid (SIF)
Type: in vitro ADME
runConditions: pig, simulated intestinal fluid (SIF) with porcine pancreatin, Table 3-2, porcine pancreatin, pH 6.8, 37° C., 10 μM, 4 h, read-out: SIF (% remaining 4 h)
*1 amine or outer side, *2 acyl side, *3 side chain or, on linkers, in order; H or OH if unused. Where a SMILES comes first, the peptide text is derived from it. Bridges are numbered along the chain shown (N, C = ends). [ ]: non-standard residue; d: D form. 2Nal = N[C@@H](Cc1ccc2ccccc2c1)C(=O)O; AEF = NCCOc1ccc(C[C@H](N)C(=O)O)cc1; NMeR = CN[C@@H](CCCNC(=N)N)C(=O)O; αMeL = CC(C)C[C@](C)(N)C(=O)O; CH2COCH2 = O=C(C[*:1])C[*:2]; 3Amb = NCc1cccc(C(=O)O)c1
measuredEndpoint: remaining at 4 h, 10 μM
Reply with a number, then the unit it belongs to.

query: remaining at 4 h, 10 μM lookup needed for CC(C)C[C@]1(C)NC(=O)[C@H](Cc2ccc3ccccc3c2)NC(=O)[C@H](Cc2ccc(OCCN)cc2)NC(=O)[C@@H]2CSCC(=O)CSC[C@H](NC(=O)[C@H](CO)NC(=O)c3cccc(c3)CNC(=O)CC[C@@H](C(=O)N(C)[C@@H](CCCNC(=N)N)C(N)=O)NC1=O)C(=O)N[C@@H](Cc1c[nH]c3ccccc13)C(=O)N[C@@H](CCC(N)=O)C(=O)N2 [Compound 43] ([3Amb]SCWQC[AEF][2Nal][αMeL]E[NMeR]-NH2; linker 3-6 via CH2COCH2; lactam N-10) , thanks.
result: 33%

----------
assayProcedure: Peptide stability in simulated intestinal fluid (SIF)
Assay type: in vitro ADME
runConditions: pig, simulated intestinal fluid (SIF) with porcine pancreatin, Table 3-2, porcine pancreatin, pH 6.8, 37° C., 10 μM, 1 h, read-out: SIF (% remaining 1 h)
*1 amine or outer side, *2 acyl side, *3 side chain or, on linkers, in order; H or OH if unused. Where a SMILES comes first, the peptide text is derived from it. Bridges are numbered along the chain shown (N, C = ends). [ ]: non-standard residue; d: D form. 2Nal = N[C@@H](Cc1ccc2ccccc2c1)C(=O)O; αMeL = CC(C)C[C@](C)(N)C(=O)O; CH2COCH2 = O=C(C[*:1])C[*:2]
measuredEndpoint: remaining at 1 h, 10 μM (%)
Give bare numbers, in %.

Below, 2 compounds whose answers are already recorded.
query: remaining at 1 h, 10 μM lookup needed for CC(C)C[C@]1(C)NC(=O)[C@H](Cc2ccc3ccccc3c2)NC(=O)[C@H](Cc2ccc(OCCN)cc2)NC(=O)[C@@H]2CCCNC(=O)CC[C@H](NC(=O)[C@H](CO)NC(=O)Cc3ccc(cc3)CNC(=O)CC[C@@H](C(=O)N[C@@H](CCN)C(=O)N[C@@H](Cc3cccnc3)C(N)=O)NC1=O)C(=O)N[C@@H](Cc1c[nH]c3ccccc13)C(=O)N[C@@H](CCC(N)=O)C(=O)N2 , thanks.
result: 35

query: remaining at 1 h, 10 μM lookup needed for CC(=O)N[C@@H](CC(=O)O)C(=O)N[C@H]1CCC(=O)NCCCC[C@@H](C(=O)NCC(N)=O)NC(=O)[C@](C)(CC(C)C)NC(=O)[C@H](Cc2ccc3ccccc3c2)NC(=O)[C@H](Cc2c[nH]c3ccccc23)NC(=O)[C@@H]2CSCC(=O)CSC[C@H](NC(=O)[C@H](CO)NC1=O)C(=O)N[C@@H](Cc1c[nH]c3ccccc13)C(=O)N[C@@H](CCC(N)=O)C(=O)N2 [Compound 60] (Ac-DESCWQCW[2Nal][αMeL]KG-NH2; lactam 2-11; linker 4-7 via CH2COCH2) , thanks.
result: 69

Next:
query: remaining at 1 h, 10 μM lookup needed for CC(=O)N[C@@H](CC(=O)O)C(=O)N[C@H]1CCC(=O)NCCCC[C@@H](C(=O)N[C@@H](CCCNC(=N)N)C(N)=O)NC(=O)[C@](C)(CC(C)C)NC(=O)[C@H](Cc2ccc3ccccc3c2)NC(=O)[C@H](Cc2c[nH]c3ccccc23)NC(=O)[C@@H]2CSCC(=O)CSC[C@H](NC(=O)[C@H]([C@@H](C)O)NC1=O)C(=O)N[C@@H](Cc1c[nH]c3ccccc13)C(=O)N[C@@H](CCC(N)=O)C(=O)N2 [Compound 57] (Ac-DETCWQCW[2Nal][αMeL]KR-NH2; lactam 2-11; linker 4-7 via CH2COCH2) , thanks.
result: 7

----------
Field: remaining at 4 h, 10 μM. Provide a value for each of the compounds that follow.
assayProcedure: Peptide stability in simulated intestinal fluid (SIF)
Assay type: in vitro ADME
runConditions: pig, simulated intestinal fluid (SIF) with porcine pancreatin, Table 3-2, porcine pancreatin, pH 6.8, 37° C., 10 μM, 4 h, read-out: SIF (% remaining 4 h)
*1 amine or outer side, *2 acyl side, *3 side chain or, on linkers, in order; H or OH if unused. Where a SMILES comes first, the peptide text is derived from it. Bridges are numbered along the chain shown (N, C = ends). [ ]: non-standard residue; d: D form. NHCH2(1,3-C6H4)CH2CO = O=C(Cc1cccc(CN[*:1])c1)[*:2]; 2Nal = N[C@@H](Cc1ccc2ccccc2c1)C(=O)O; AEF = NCCOc1ccc(C[C@H](N)C(=O)O)cc1; X1 = O=C(Cc1ccc(CN[*:1])cc1)[*:2]; αMeL = CC(C)C[C@](C)(N)C(=O)O; CH2COCH2 = O=C(C[*:1])C[*:2]; Dab = NCC[C@H](N)C(=O)O
Numbers only, in %.

query: remaining at 4 h, 10 μM lookup needed for CC(C)C[C@]1(C)NC(=O)[C@H](Cc2ccc3ccccc3c2)NC(=O)[C@H](Cc2ccccc2)NC(=O)[C@@H]2CCNC(=O)CC[C@H](NC(=O)[C@H](CO)NC(=O)Cc3ccc(cc3)CNC(=O)CC[C@@H](C(=O)N[C@@H](CCN)C(N)=O)NC1=O)C(=O)N[C@@H](Cc1c[nH]c3ccccc13)C(=O)N[C@@H](CCC(N)=O)C(=O)N2 [Compound 130] ([X1]SEWQ[Dab]F[2Nal][αMeL]E[Dab]-NH2; lactam 3-6, N-10) , thanks.
result: 0

Next:
query: remaining at 4 h, 10 μM lookup needed for CC(C)C[C@]1(C)NC(=O)[C@H](Cc2ccc3ccccc3c2)NC(=O)[C@H](Cc2ccc(OCCN)cc2)NC(=O)[C@@H]2CSCC(=O)CSC[C@H](NC(=O)[C@H](CO)NC(=O)Cc3cccc(c3)CNC(=O)CC[C@@H](C(=O)N[C@H](CCCNC(=N)N)C(N)=O)NC1=O)C(=O)N[C@@H](Cc1c[nH]c3ccccc13)C(=O)N[C@@H](CCC(N)=O)C(=O)N2 [Compound 92] ([NHCH2(1,3-C6H4)CH2CO]SCWQC[AEF][2Nal][αMeL]E[dR]-NH2; linker 3-6 via CH2COCH2; lactam N-10) , thanks.
result: 102
